// reported cell binding for each item listed
Target: T1, CD70 on cells (CHO-CD70, JVM-3, U266, Raji, THP-1, T cells) (human, UniProt P32970 1-193)
T1 construct: whole, on cells; also called cell-surface CD70
T1 sequence (looked up): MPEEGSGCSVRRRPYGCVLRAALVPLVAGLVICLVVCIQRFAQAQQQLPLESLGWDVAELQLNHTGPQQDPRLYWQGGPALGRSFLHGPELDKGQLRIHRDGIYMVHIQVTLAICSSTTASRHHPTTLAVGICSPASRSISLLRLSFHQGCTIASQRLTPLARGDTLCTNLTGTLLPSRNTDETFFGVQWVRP
Experiment: 1.25 µg/mL scFv on U266 cells

# binder, cell binding
records = [
    ("39-TC6-IV-B08 (scFv, His-tagged; also called 1885) scFv: QVQLVESGGGVVQPGGSLRLSCAASGFTFSSYAMHWVRQAPGKGLEWVAVISYDGSNKYYADSVKGRFTISRDNSKNTLYLQMNSLRAEDTAVYYCARDGHPYYYGMDVWGQGTTVTVSSGGSGGSGGSGGSQSALTQPASVSGSPGQSITISCTGTSSDVGDYNYVSWYQHHPGKAPKLMIYDVSNRPSGVSNRFSGSKSGNTASLTISGLQAEDEADYYCGSYTGSDTWVFGGGTKVTVL", 35900),
    ("42-TC4-VII-G08 (scFv, His-tagged) scFv: QVQLVQSGGGVVQPGRSLRLSCAASGFTFSSYAMHWVRQAPGKGLEWVAVISYDGSNKYYADSVKGRFTISRDNSKNTLYLQMNSLRAEDTAVYYCARDLSYDYGFDYWGQGTLVTVSSGGSGGSGGSGGSSSELTQDPAVSVALGQTVRITCQGDSLRSYYASWYQQKPGQAPVLVIYGKNNRPSGIPDRFSGSSSGNTASLTITGAQAEDEADYYCNSRDSSGNHLVVFGGGTKVTVL", 13100),
    ("52-TC7-VIII-C02 (scFv, His-tagged) scFv: QVQLLESGGGVVQPGRSLRLSCAASGFTFSSYGMHWVRQAPGKGLEWVAVISYDGSNKYYADSVKGRFTISRDNSKNTLYLQMNSLRAEDTAVYYCAKGAYYYGSVSGMDVWGQGTTVTVSSGGSGGSGGSGGSSYELTQPVSVSVALGQTARLTCAGNNIGSKNVHWYQQKPSQAPVLVIYNDNIRPNFGIPERFSGSNSGNTATLTISSAQAGDEADYYCQVWDSSTAEVFGGGTKLTVL", 2980),
    ("57-TC7-VII-A03 (scFv, His-tagged) scFv: QVQLQQSGPGLVKASETLSLTCAVSGHSISSSNYWGWIRQPPGKGLEWIGSIYHSGTTYYNPSLKSRVTMSVDTSKNQFSLKLSSVTAADTAVYYCARHGSGDLGYLEYWGQGTLVTVSSGGSGGSGGSGGSSYELTQSPSVSVAPGKTARITCGGNNIGSKSVHWYQQKPGQAPVLVIYYDSDRPSGIPERFSGSNSGNTATLTISRVEAGDEADYYCQVWDSSSDHPVFGGGTKVTVL", 3150),
    ("4-TC4-I-G08 (scFv, His-tagged) scFv: QVQLVQSGGGVVQPGRSLRLSCAASGFTFSSYAMHWVRQAPGKGLEWVAVISYDGSNKYYADSVKGRFTISRDNAKNSLYLQMNSLRDEDTAVYYCARDESFDYGVDVWGKGTTVTVSSGGSGGSGGSGGSSSELTQDPAVSVALGQTVRITCQGDSLRSYYASWYQQKPGQAPVLVIYGKNNRPSGIPDRFSGSSSGNTASLTITGAQAEDEADYYCNSRDSSGNHLVVFGGGTKLTVL", 23500),
    ("14-TC4-XIII-A01 (scFv, His-tagged) scFv: QVQLVQSGAEVKKPGASVKVSCKASGYTFTGYYMNWVRQAPGQGLEWMAWINPNTGDTNYAQKFQGRVTMTRDTSINTAYIELSRLTSDDTAVYYCARVGDYYDRSGYYRHDAFDIWGQGTMVTVSSGGSGGSGGSGGSSSELTQDPAVSVALGQTVRITCQGDSLRSYYASWYQQKPGQAPVLVIYGKNNRPSGIPDRFSGSSSGNTASLTITGAQAMDEADYYCQAWDSSTGVVFGGGTKVTVL", 953),
    ("13-TC7-V-H10 (scFv, His-tagged) scFv: QVQLQQWGAGLLKPSETLSLTCAVYGGSFSGYYWSWIRQPPGKGLEWIGEINHSGSTNYNPSLKSRVTISVDTSKNQFSLKLSSVTAADTAVYYCARSRRPYWYFDLWGRGTLVTVSSGGSGGSGGSGGSQSALTQPASVSGSPGQSITISCTGTSSDVGGYNSVSWYRQHPGKAPKLMIYDVTNRPSGVSNRFSGSKSGNTASLTISGLQAEDEADYYCSSSSISATWVFGGGTKLTVL", 34300),
    ("32-TC1.2-I-F07-6 (scFv, His-tagged) scFv: QVQLVQSGAEVKKPGESLKISCKGSGYSFTSYWIGWVRQMPGKGLEWMGIIYPGESDTRYSPSFQGQVTISADKSISTAYLQWSSLKASDTAMYYCARRNYYDRSGYVDAFDIWGQGTMVTVSSGGSGGSGGSGGSSSELTQDPAVSVALGQTVRITCQGDSLRRFYASWHQQKPGQAPIVVMYAENNRPSGIPDRFSGSSSGNTASLTITGAQAEDEATYYCNSRDSSGNRHVFGTGTKLTVL", 20700),
    ("15-TC7-I-D07 (scFv, His-tagged) scFv: QVQLQQWGAGLLKPSETLSLTCAVYGGSFSGYYWSWIRQPPGKGLEWIGEINHSGSTNYNPSLKSRVTISVDTSKNQFSLKLSSVTAADTAVYYCARVSRSRGAFDIWGQGTMVTVSSGGSGGSGGSGGSQSALTQPASVSGSPGQSITISCTGTNSDVGAYNYVSWYQQHPGKAPKLMIYEVTNRPSGVSNRFSGSKSGNTASLTISGLQAEDEADYYCSSYTSSGTWVFGGGTKLTVL", 42900),
    ("60-TC7-VII-C02 (scFv, His-tagged) scFv: QVQLQQWGAGLLKPSETLSLTCAVYGGSFSGYYWSWIRQPPGKGLEWIGEINHSGSTNYNPSLKSRVTISVDTSKNQFSLKLSSVTAADTAVYYCARSPLWFGPPDAFDIWGQGTMVTVSSGGSGGSGGSGGSQSALTQPPSASGSPGQSVSISCTGTSSDVGGYNYVSWYQQHPGKAPKLIIYDVDKRPSGIPERFSGSNSGNTATLTISGTQAMDEADYYCQAWDSSTEVVFGGGTKVTVL", 5040),
]
